Assay: Lethal dose when given intraperitoneally in mice
Assay type: toxicity, organism-based
Conditions: mouse, in vivo, ip
attribute_measured: LD50 (mg/kg)
One number for each entry, in mg/kg.

A selection of reference data follows.
c1ccc(-c2nnc3c4ccccc4c(N4CCCCC4)nn23)cc1 : 600
CN1CCN(c2nn3c(-c4ccccc4)nnc3c3ccccc23)CC1 : 300
COCCN(CCOC)c1nn2c(-c3cccc(C)c3)nnc2c2ccccc12 : 300
Oc1ccc(-c2nnc3c4ccccc4c(N4CCCC4)nn23)cc1 : 600
CN(C)c1ccc(-c2nnc3c4ccccc4c(N4CCCC4)nn23)c(Cl)c1 : 600

// for each molecule in input: emit LD50
1. COc1cc(-c2nnc3c4ccccc4c(N4CCCC4)nn23)cc(Br)c1OC
2. FC(F)(F)c1cccc(-c2nnc3c4ccccc4c(N4CCCC4)nn23)c1

RESULT:
1: 600; 2: 600

QUERY: Determine from records and report LD50 for c1ccc(-c2nnc3c4ccccc4c(N4CCOCC4)nn23)cc1
RESULT: 300
